Assay read-out IC50; system under study: HCV polymerase (Hepatitis C virus genotype 1b).
Kindly provide the numeric value in nM only, without the unit symbol.

In [3]: df
Out[3]:
                                   compound  measurementkind  observed
0  C[C@@H]1CN(c2ccc(S(=O)(=O)N3CC(=O)N(c4cc(-c5ccccc5)sc4C(=O)O)[C@H](C4CCCCC4)C3)cn2)CCN1C(=O)OC(C)(C)C             IC50         3

Req: // IC50 lookup, key: O=C(O)c1ccc(S(=O)(=O)N2CC(=O)N(c3cc(-c4ccccc4)sc3C(=O)O)C(C3CCCCC3)C2)cc1 (stereo not drawn)
Resp: 3

Req: // IC50 lookup, key: CC(C)(C)C#Cc1cc(N2C(=O)CN(S(=O)(=O)c3cccnc3)C[C@H]2C2CCCCC2)c(C(=O)O)s1
Resp: 3

----------
Assay read-out log10(IC50); system under study: HCV polymerase (Hepatitis C virus genotype 1b, UniProt Q9WMX2).
A value of 2 here means IC50 of 100 in nM, since values are log10.

Use the examples below as a reference point.
                                   molecule  measurementkind  observed
0  Cc1ncc(S(=O)(=O)N2CC(=O)N(c3cc(C#CC(C)(C)C)sc3C(=O)O)[C@H](C3CCCCC3)C2)n1C [Compound 255]      log10(IC50)      0.70
1  O=C(O)c1sc(-c2ccccc2)cc1N1C(=O)CN(S(=O)(=O)c2ccc(OC(F)F)cc2)CC1C1CCCCC1 (centres unmarked) [Compound 106]      log10(IC50)      1.15
2  Cc1cc(S(=O)(=O)N2CC(=O)N(c3cc(-c4ccccc4)sc3C(=O)O)[C@H](C3CCCCC3)C2)cnc1N1CCCC1 [Compound 172]      log10(IC50)      0.08
3  O=C(O)c1sc(-c2ccccc2)cc1N1C(=O)CN(C(=O)c2ccccc2)C[C@H]1C1CCCCC1 [Compound 16]      log10(IC50)      2.62
4  CC(C)(C)C#Cc1cc(N2C(=O)C(CCCO)CC[C@H]2C2CCCCC2)c(C(=O)O)s1 (some centres unmarked) [Compound 339]      log10(IC50)      0.90
5  Cc1ccccc1S(=O)(=O)N1CC(=O)N(c2cc(-c3ccccc3)sc2C(=O)O)C(C2CCCCC2)C1 (centres unmarked) [Compound 58]      log10(IC50)      1.94
6  Cc1ccc(-c2cc(N3C(=O)CN(S(=O)(=O)c4ccc(C)nc4)C[C@H]3C3CCCCC3)c(C(=O)O)s2)cc1 [Compound 302]      log10(IC50)      0.48
7  O=C(O)c1sc(-c2ccccc2)cc1N1C(=O)CN(S(=O)(=O)c2ccc(-c3cccnc3)nc2)C[C@H]1C1CCCCC1 [Compound 214]      log10(IC50)      0.00

Req: Query the reported log10(IC50) for HCV polymerase (Hepatitis C virus genotype 1b, UniProt Q9WMX2); item: CC1(C)CCN(c2ccc(S(=O)(=O)N3CC(=O)N(c4cc(-c5ccc(Cl)cc5)sc4C(=O)O)[C@H](C4CCCCC4)C3)cn2)C1 [Compound 292]
Resp: 0.36

Req: Query the reported log10(IC50) for HCV polymerase (Hepatitis C virus genotype 1b, UniProt Q9WMX2); item: C[C@@H]1CCCN1c1ccc(S(=O)(=O)N2CC(=O)N(c3cc(-c4ccccc4)sc3C(=O)O)C(C3CCCCC3)C2)cn1 (some centres unmarked) [Compound 118]
Resp: 0.30

----------
# systemName: UniProt Q9WMX2
Category key, based on recorded IC50: range 1 (below 2 nM), range 2 (2 nM to below 7 nM), range 3 (7 nM or more)

In [3]: df
Out[3]:
                                   molecule      systemname  assignedclass
0  CN(c1ccc(S(=O)(=O)N2CC(=O)N(c3cc(-c4ccccc4)sc3C(=O)O)C(C3CCCCC3)C2)cn1)C1CCCCC1 (stereo not drawn)  UniProt Q9WMX2        range 3
1  Cc1ccc(CN2CC(=O)N(c3cc(C#CC(C)(C)C)sc3C(=O)O)C(C3CCCCC3)C2)cc1 (stereo not drawn)  UniProt Q9WMX2        range 3
2  O=C(O)c1sc(-c2ccccc2)cc1N1C(=O)CN(S(=O)(=O)c2cccnc2)CC1C1CCCCC1 (stereo not drawn)  UniProt Q9WMX2        range 3

Req: Hi there! Could you help me figure out the category for O=C(O)c1sc(-c2ccccc2)cc1N1C(=O)CN(S(=O)(=O)c2ccc(NC3CCCC3)nc2)CC1C1CCCCC1 (stereo not drawn) please?
Resp: range 2

Req: Hi there! Could you help me figure out the category for CC(C)(C)C#Cc1cc(N2C(=O)[C@@H](CCO)OC[C@H]2C2CCCCC2)c(C(=O)O)s1 please?
Resp: range 1

Req: Hi there! Could you help me figure out the category for O=C(O)c1sc(-c2ccccc2)cc1N1C(=O)CN(S(=O)(=O)c2cccc3ccccc23)CC1C1CCCCC1 (stereo not drawn) please?
Resp: range 3

Req: Hi there! Could you help me figure out the category for O=C(O)c1sc(-c2ccccc2)cc1N1C(=O)CN(S(=O)(=O)c2cnc(N3CCCC3)c(Cl)c2)C[C@H]1C1CCCCC1 please?
Resp: range 2

----------
Assay read-out pIC50; system under study: HCV polymerase (Hepatitis C virus genotype 1b).
Please keep in mind that pIC50 is minus log10 of the molar concentration; only the number is needed.

Req: // pIC50 lookup, key: C[C@H]1OCC(=O)N(c2cc(C#CC(C)(C)C)sc2C(=O)O)[C@@H]1C1CCCCC1 [Compound 291]
Resp: 8.10

Req: // pIC50 lookup, key: CC(C)(C)C#Cc1cc(N2C(=O)CCC[C@H]2C2CCCCC2)c(C(=O)O)s1 [Compound 35]
Resp: 8.02

Req: // pIC50 lookup, key: CN(C)CCNc1ccc(S(=O)(=O)N2CC(=O)N(c3cc(-c4ccccc4)sc3C(=O)O)C(C3CCCCC3)C2)cn1 (stereo not drawn) [Compound 81]
Resp: 8.05

----------
# systemName: HCV polymerase (Hepatitis C virus genotype 1b, UniProt Q9WMX2)
pIC50: −log10 of the molar value.
Respond with TRUE for pIC50 values of 8 and above, FALSE for values below.

As a guide, the following entries are already answered.
>>> df
                                   molecule  assignedclass
0  Cc1ccc(-c2cc(N3C(=O)CN(S(=O)(=O)c4ccc(N5CCCOCC5)nc4)C[C@H]3C3CCCCC3)c(C(=O)O)s2)cc1           TRUE
1  CC(C)(C)C#Cc1cc(N2C(=O)CN(S(=O)(=O)c3ccc(C#N)cc3)C[C@H]2C2CCCCC2)c(C(=O)O)s1           TRUE
2  COc1ccc(S(=O)(=O)N2CC(=O)N(c3cc(C#CC(C)(C)C)sc3C(=O)O)[C@H](C3CCCCC3)C2)cn1           TRUE
3  O=C(O)c1sc(-c2ccc(F)cc2)cc1N1C(=O)CN(S(=O)(=O)c2ccc(N3CC[C@H](F)C3)nc2)C[C@H]1C1CCCCC1           TRUE
4  Cc1ccc(-c2cc(N3C(=O)C(C)(O)CCC3C3CCCCC3)c(C(=O)O)s2)cc1 (stereo not drawn) [Compound 324]          FALSE
5  O=C(O)c1sc(-c2ccccc2)cc1N1C(=O)CN(S(=O)(=O)C2CCN(C(=O)OCc3ccccc3)CC2)CC1C1CCCCC1 (stereo not drawn)          FALSE

Req: Evaluate Cc1nc(S(=O)(=O)N2CC(=O)N(c3cc(C#CC(C)(C)C)sc3C(=O)O)[C@H](C3CCCCC3)C2)cn1C : pIC50 at minimum 8?
Resp: TRUE

----------
Assay read-out pIC50; system under study: HCV polymerase (Hepatitis C virus genotype 1b).
Please keep in mind that pIC50 is minus log10 of the molar concentration; only the number is needed.

Use the examples below as a reference point.
                                   compound  observed
0  CN1CCC(N2CC(=O)N(c3cc(-c4ccccc4)sc3C(=O)O)[C@H](C3CCCCC3)C2)CC1 [Compound 271]      5.61
1  O=C(O)c1sc(-c2ccccc2)cc1N1C(=O)CN(S(=O)(=O)c2ccc(C(F)(F)F)cc2)CC1C1CCCCC1 (stereo not shown) [Compound 54]      7.74
2  O=C(O)c1sc(-c2ccccc2)cc1N1C(=O)CN(S(=O)(=O)c2ccc(N3CC[C@H](F)C3)nc2)CC1C1CCCCC1 (stereo partly shown) [Compound 121]      8.15
3  CC(C)(C)C#Cc1cc(N2C(=O)CN(S(=O)(=O)c3ccc(F)cc3F)C[C@H]2C2CCCCC2)c(C(=O)O)s1 [Compound 281]      8.52
4  Cc1ccc(-c2cc(N3C(=O)CN(S(=O)(=O)c4cnc(C)c(C)c4)C[C@H]3C3CCCCC3)c(C(=O)O)s2)cc1 [Compound 305]      8.40
5  O=C(O)c1sc(-c2ccccc2)cc1N1C(=O)COCC1C1CCCCC1 (stereo not shown) [Compound 13]      7.10

Req: Query the reported pIC50 for HCV polymerase (Hepatitis C virus genotype 1b); item: N[C@H]1CCCN(c2ccc(S(=O)(=O)N3CC(=O)N(c4cc(-c5ccccc5)sc4C(=O)O)[C@H](C4CCCCC4)C3)cn2)C1 [Compound 142]
Resp: 8.70

Req: Query the reported pIC50 for HCV polymerase (Hepatitis C virus genotype 1b); item: CN(C)c1ccc(-c2ccc(S(=O)(=O)N3CC(=O)N(c4cc(-c5ccccc5)sc4C(=O)O)[C@H](C4CCCCC4)C3)cn2)cc1 [Compound 203]
Resp: 9.00

Req: Query the reported pIC50 for HCV polymerase (Hepatitis C virus genotype 1b); item: O=C(O)c1sc(-c2ccc(Cl)cc2)cc1N1C(=O)CCCC1C1CCCCC1 (stereo not shown) [Compound 73]
Resp: 7.68

Req: Query the reported pIC50 for HCV polymerase (Hepatitis C virus genotype 1b); item: O=C(O)c1sc(-c2ccccc2)cc1N1C(=O)CN(S(=O)(=O)c2ccc(-c3ccc4c(c3)OCCCO4)nc2)C[C@H]1C1CCCCC1 [Compound 212]
Resp: 8.70

Req: Query the reported pIC50 for HCV polymerase (Hepatitis C virus genotype 1b); item: CC1(NC(=O)OC(C)(C)C)CCN(c2ccc(S(=O)(=O)N3CC(=O)N(c4cc(-c5ccccc5)sc4C(=O)O)[C@H](C4CCCCC4)C3)cn2)CC1 [Compound 153]
Resp: 8.40

Req: Query the reported pIC50 for HCV polymerase (Hepatitis C virus genotype 1b); item: N[C@@H]1CCN(c2ccc(S(=O)(=O)N3CC(=O)N(c4cc(-c5ccccc5)sc4C(=O)O)[C@H](C4CCCCC4)C3)cn2)C1 [Compound 141]
Resp: 8.70

Req: Query the reported pIC50 for HCV polymerase (Hepatitis C virus genotype 1b); item: O=C(O)c1sc(-c2ccccc2)cc1N1C(=O)CN(S(=O)(=O)c2cccc(OC(F)(F)F)c2)CC1C1CCCCC1 (stereo not shown) [Compound 59]
Resp: 7.41

Cited source: patent US9498483B2
